Target: T1, human SPNS2 K136A mutant (human, UniProt Q8IVW8 1-549)
T1 sequence: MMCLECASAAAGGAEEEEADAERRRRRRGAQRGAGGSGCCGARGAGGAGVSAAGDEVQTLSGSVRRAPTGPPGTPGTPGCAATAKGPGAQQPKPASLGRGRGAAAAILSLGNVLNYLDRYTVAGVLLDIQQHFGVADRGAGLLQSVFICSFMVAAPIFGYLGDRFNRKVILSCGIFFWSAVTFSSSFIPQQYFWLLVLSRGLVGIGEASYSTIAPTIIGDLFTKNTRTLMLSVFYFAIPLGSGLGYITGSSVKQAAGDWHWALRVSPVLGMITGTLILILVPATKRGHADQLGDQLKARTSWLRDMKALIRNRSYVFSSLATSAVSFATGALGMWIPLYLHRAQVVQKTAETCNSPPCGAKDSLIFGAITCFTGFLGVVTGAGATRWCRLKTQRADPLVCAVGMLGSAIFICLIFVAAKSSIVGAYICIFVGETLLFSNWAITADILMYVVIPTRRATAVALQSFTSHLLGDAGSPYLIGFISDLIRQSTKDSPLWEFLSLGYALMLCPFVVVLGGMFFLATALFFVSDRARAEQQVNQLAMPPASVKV
Test: flow cytometry
This listing pairs binders with measured binding ratio vs native type.

Example binders with recorded binding ratio vs native type:
>  <Binder>
33-0503E (antibody, IgG2b, V domains shown) VH: EVQLVESGGGLVRPGGSMKLSCGASGFIFDNYYMTWVRQAPTKGLEWVASISSSGGNTYYRDSVRGRFTISRDNAGNTLSLQMGSLRAEDTATYHCAKEGYRGRYFDYWGQGVMVTVSS VL: QVVLTQPNSVSTNLGSTVKLSCKRTTGNIGSNYVNWYQQHEGRSPTTMIYRDDERPDGVPDRFSGSIDRSSNSALLTINNVQTEDEAEYFCQSYSSGIIFGGGTKLTVL

>  <binding ratio vs native type>
< 0.5 ratio

$$$$
>  <Binder>
50-0704C (antibody, IgG2b, V domains shown) VH: EVQLVGSGGGLVQPGRSMKLSCEASGFTFSNHYMAWVRQAPTKGLEWVATISTGGGNTYYRDSVKGRFTISRDNARSTLSLQMDSLRSEDTATYYCARQDYSNYMGGFAYWGQGTLVTVSS VL: QFVLTQPNSVSTNLGSTVKLSCTRSIGNIGNNYVNWYKQYEGRSPTTMIYRDDERPDGVPDRFSGSIDRSSNSALLTINSVQTEDEADYFCQSFSSGIFIFGGGTKLTVL

>  <binding ratio vs native type>
< 0.5 ratio

$$$$
>  <Binder>
93-1310F (antibody, IgG2b, V domains shown) VH: EVQLVETGGGLVQPGSSLKLSCATSGFTFSDTWMSWVRQAPGKGLEWVALIKDKNSNYEANYAESVKGRFTISRDDSKRRVYLQMFTLRDQDTATYYCTSHEDFYYYSSYYFDYWGHGVMVTVSS VL: DIVLTQSPATLSVTPGESVSLSCRASQGISTSIHWYQQKSNGSPRLLIKYASQSISGIPSRFSGSGSGTDFTLRINRVESEDFSVYYCQQTYSLPLTFGSGTRLEIKR

>  <binding ratio vs native type>
< 0.5 ratio

$$$$
>  <Binder>
65-0810G (antibody, IgG2b, V domains shown) VH: EVHLVESGGGLVQPGRSMKLSCTASGFTFNNYYMAWVRQAPTKGLEWVASISTGGGYTYYRDSVKGRFTISRDNTGNTLYLQMDSLRSEDTATYYCARCWELPYWGQGVMVTVSS VL: QFVLTQPNSVSTNLGSTVKLSCRRSSGNIGNNYVNWYRQHEGRSPTTMIYRDDTRPDGVPNRFSGSIDRSSNSALLTINNVRPEDEAYYFCQSYSGSIYIFGGGTKLTVL

>  <binding ratio vs native type>
< 0.5 ratio

$$$$

Switching to the query record.
So for 80-1104A (antibody, IgG2b, V domains shown) VH: EVQLVETGGGLVQPGSSLKLSCSTSGFTFSETWMSWVRQAPGKGLEWVGLIKDKNSNYEANYAESVKGRFTISRDDSKRRVYLQMYTLRDQDTATYYCTSHEDFYYYSSYYFDYWGQGVMVTVSS VL: DIVLTQSPATLSVTPGESVSLSCRASQGISTSIHWYQQKSNESPRLLIKYASQSMSGIPSRFSGSGSGTDFTLRINRVESEDFSVYYCQQSYNLPLTFGSGTKLEIKR , the logged binding ratio vs native type turned out to be < 0.5 ratio
